# Tested on: EKVX NSCLC
# ASSAY_DETAILS: NCI-60 one-dose screen, 48 h (100 = growth as untreated, 0 = no growth, -100 = all killed)
# TEST_PARAMETERS: 10 µM unless noted
The panel holds about 83,000 compounds, 20% with a hit somewhere; the sample as a whole holds those more often.
A collection of compounds and their measured growth
Write down the numeric answer in % and omit the unit.

COc1c(F)ccc(C(=O)Nc2ccc3nc(NC(=O)C4CCCN(S(=O)(=O)c5ccc(C(C)(C)C)cc5)C4)sc3c2)c1F (stereo not drawn)
59
COc1ccc2ccccc2c1/C=C1\SC(=Nc2ccc(O)cc2)NC1=O
15.8
COc1c(B(O)O)cc(F)cc1-c1nc2c(F)cc3[nH]ncc3c2c2c1CCCC2
13.5
COc1cncc(-c2ccc3ncnc(N4CCc5ccc(Cl)cc54)c3c2)c1
-29.3
CCCn1c(NC(=O)c2cccc(C(N)=O)c2)nc2cc(CN3CCCCC3)ccc21
100

Entry CNS(=O)(=O)N1CCc2c(Br)c3c(c(OC)c2C1CCc1ccccc1)OCO3 (stereo not drawn) , growth reported as -6.87

Entry O=C(NN1C(=O)/C(=C/C=C/c2ccc([N+](=O)[O-])o2)SC1=S)c1ccc([N+](=O)[O-])cc1 , growth reported as -97.8

Entry Clc1ccccc1Nc1nnc(-c2c[nH]c3ccccc23)o1 , growth reported as 18.7

Entry CN(C)c1ccc(/C=C/c2n(Cc3ccc4ccccc4c3)c3ccccc3[n+]2Cc2ccc3ccccc3c2)cc1 , growth reported as -95.8

Entry COc1ccc(NC(=O)CSc2nnc(-c3ccc(-c4nc5ccc(Cl)cc5[nH]4)cc3)o2)cc1 , growth reported as 23.3

Entry CC1=C(C(=O)Nc2ccccc2)C(c2cccc3ccccc23)n2c(nc3ccccc32)N1 (stereo not drawn) , growth reported as 67.4

Entry O=C(Cc1c(-c2cccc([N+](=O)[O-])c2)n(-c2ncnc3c2c(-c2ccccc2)c(-c2ccccc2)n3Cc2ccccc2)[nH]c1=O)c1ccc(Cl)c(Cl)c1 , growth reported as 11.1

Entry S=C(Nc1ccc(OCc2nc3ccc(Cl)cc3[nH]2)cc1)NC1CCCCC1 , growth reported as -7.76

----------
# System: TK-10 renal
# ASSAY_DETAILS: NCI-60 one-dose screen, 48 h (100 = growth as untreated, 0 = no growth, -100 = all killed)
# TEST_PARAMETERS: 10 µM unless noted
Compounds without any hit were thinned out: in the full panel of roughly 83,000, 20% have a hit.
Criterion: growth meeting or surpassing 60%. Met: satisfied. Not met: not satisfied.

Reference set, count: 4
O=C1CC(c2ccc(I)cc2)OC2C=Cc3ccccc3C12 (centres undefined)
satisfied
COc1cc(CNC(=O)C[C@H](C)CCC=C(C)C)ccc1OCc1cn(-c2ccccc2F)nn1
satisfied
Cc1ccc(O)cc1Nc1nc(SCCN2CCOCC2)nc2c1cnn2CC(Cl)c1ccc(Br)cc1 (centres undefined)
not satisfied
CCN(C(=O)CN1C(=O)/C(=C/c2ccco2)SC1=S)C1CCS(=O)(=O)C1 (centres undefined)
satisfied

## Input Assess whether reported growth for Cc1ccc(Cl)cc1NC(=O)Nc1nc2ccc([N+](=O)[O-])cc2s1 sits at 60% or higher.
## Output not satisfied

----------
# Test system: OVCAR-8 ovarian
# ASSAY_DETAILS: NCI-60 one-dose screen, 48 h (100 = growth as untreated, 0 = no growth, -100 = all killed)
# TEST_PARAMETERS: 10 µM unless noted
The panel holds about 83,000 compounds, 20% with a hit somewhere; the sample as a whole holds those more often.
QUANTITY_NAME: growth (%)
Write down the numeric answer in % and omit the unit.

Please review the entries below; each comes with its answer.
Cc1cc(C2(c3cc(C)c(OCC(O)CNc4c(C)n(C)n(-c5ccccc5)c4=O)cc3C(C)C)OC(=O)c3ccccc32)c(C(C)C)cc1OCC(O)CNc1c(C)n(C)n(-c2ccccc2)c1=O (stereo not drawn)
33.1
N#Cc1c(-c2ccc(F)cc2)nc(SCc2ccc(F)cc2)nc1N1CCNCC1
-84
CN1CCN(C(=O)CCN(C(=O)Oc2cc3c(c4ccccc24)[C@H](CCl)CN3C(=O)c2cc3cc(OCCCN4CCC4)ccc3[nH]2)[C@H]2CCSSC2)CC1
-64.4
Cc1cccc(/C=C/c2ccc(NC(=S)NCCCCN(C)C)cc2)c1
-62.3
COc1c(B(O)O)cc(F)cc1-c1nc2ccc3[nH]ncc3c2c2c1COCC2
51.5
CCN1C(=O)N(CC)C2NNC(Sc3c(C(=O)O)c4ccccc4n(CCC(C)C)c3=O)=NC21 (stereo not drawn)
5.92
COc1ccc(-c2cc(C(=O)Oc3ccc(C=O)cc3OC)nn2-c2ccc(S(C)(=O)=O)cc2)cc1
103

Entry O=c1[nH]c2ccccc2cc1CSc1ccccc1Nc1nccc(-c2ccc3c(c2)OCO3)n1 , growth reported as 46.8
